Answer each item with its documented z-score.
Assay: change in splice reporter luminescence, either direction, cell-based, HEK293, spliceosome inhibition project, primary screen (AID 1101);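 also: HEK293 cells carrying a splicing-competent luciferase reporter gene; test concentration not given here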
Conditions: HEK293 splicing luciferase reporter, 24 h, higher = more signal, called active from +8 up or from −8 down
Answer with the value's number alone.

Give its z-score value. Item: COCCOC(=O)N1C(=O)[C@@]2(c3cc(C#CC4(O)CCCCCC4)ccc31)[C@H](C(=O)NC[C@H](O)c1ccccc1)[C@H]1C(=O)O[C@H](c3ccccc3)[C@H](c3ccccc3)N1[C@@H]2c1ccc(OCCO)cc1
-1.15

Fill in the blank: the reported z-score of C=CCN1C(=O)[C@@]2(O[C@@H](CCn3cc([C@H](O)c4ccccc4)nn3)[C@H]([Si](C)(C)c3ccc(OC)cc3)[C@H]2C)c2cc(NC(=O)c3ccc(OC)cc3)ccc21 is ____.
-0.345

What value of measured z-score is listed for COCCCNC(=O)[C@@H]1c2ccccc2C(=O)N(Cc2cc(F)cc(C(F)(F)F)c2)[C@H]1c1ccc(CO)cc1 ?
-0.0265

Please give the measured z-score for this molecule: COC(=O)[C@@]1(Cc2ccc(F)cc2)[C@@H]2[C@@H](CC(=O)[C@H]2CC(=O)C(=O)N2CCCC2)CN1C(=O)c1ccccc1
-0.98

Param item = COCCOC(=O)N1C(=O)[C@@]2(c3cc(C#Cc4ccc(OC)cc4)ccc31)[C@H](C(=O)N1CCc3cc(OC)c(OC)cc3C1)[C@H]1C(=O)O[C@H](c3ccccc3)[C@H](c3ccccc3)N1[C@@H]2c1ccc(OCCO)cc1 ; retrieve measured z-score.
-0.32

Cited source for all entries: PubChem BioAssay
